Data origin, for the record: the Deep4Chem optical property database

Items are presented alongside their recorded absorption maximum.
RUN_DESCRIPTION: solvent given as SMILES
CONDITION_DETAILS: in CO
Dear colleague, please return just the value in nm, with no unit written.

See these solved cases before continuing.
>>> value_observed("C(=C\\c1cccc2ccccc12)/c1ccc(-c2nnc(-c3ccc(-c4cc5ccccc5s4)cc3)o2)cc1")
351
>>> value_observed("Cc1ccc(-n2c3ccccc3c3cc(C=C(C#N)C#N)ccc32)cc1")
402
>>> value_observed("COc1ccc(-c2nc(-c3cc([N+](=O)[O-])ccc3O)[nH]c2-c2ccc(OC)cc2)cc1")
260
>>> value_observed("COC(=O)CNC(=O)c1nc2c(N(C)C)nc(N(C)C)nc2n1Cc1ccccc1")
340
>>> value_observed("c1ccc(-c2nc3c(ccc4[nH]ccc43)o2)cc1")
325

IN: Give recorded absorption maximum. CNCCCC1c2ccccc2C=Cc2ccccc21
OUT: 293

IN: Give recorded absorption maximum. CCCCCCN(CCCCCC)c1ccc(C#Cc2ccc(N(CCCCCC)CCCCCC)cc2)cc1
OUT: 380

IN: Give recorded absorption maximum. O=C1c2ccccc2-c2c(-c3ccc([N+](=O)[O-])cc3)c(-c3ccc([N+](=O)[O-])cc3)c(-c3ccccc3)c3cccc1c23
OUT: 400

IN: Give recorded absorption maximum. N#Cc1ccc(/C=C/C=C/C2=NC3C(=O)NC(N)=NC3N2[C@H]2C[C@H](O)[C@@H](CO)O2)cc1 (stereo not given in full)
OUT: 381

IN: Give recorded absorption maximum. Cc1ccc2nnn(-c3c(C#N)c4c(N)ncnc4n3[C@H]3C[C@H](O)[C@@H](CO)O3)c2c1
OUT: 278
